Cited source for all entries: ChEMBL document CHEMBL4321787

experimentNotes: Cytotoxicity against human MT2 cells incubated for 5 days
Format: cell-based
Record form. Attribute: CC50 at 120 h. Fill in for each entry.
Numeric only. Scale: µM

Consider `Cc1c(Oc2ccccc2OCCn2ccc(=O)[nH]c2=O)cc(N(C)C(=O)CCl)c2ccc(C#N)cc12` . Its measured CC50 at 120 h is 32

Consider `C=CC(=O)N(C)c1cc(Oc2ccccc2OCCn2ccc(=O)[nH]c2=O)c(C)c2cc(C#N)ccc12` . Its measured CC50 at 120 h is 32

Consider `C=CC(=O)Nc1cc(Oc2ccccc2OCCn2ccc(=O)[nH]c2=O)c(C)c2cc(C#N)ccc12` . Its measured CC50 at 120 h is 11
